target_system: GLP-1 receptor (GLP-1R), primary cAMP assay (human, UniProt P43220 24-463)
assay_comment: cell-based or functional assay
Starred links: 1 amine or outer side, 2 acyl side, 3 side chain; linkers in the order of their positions; H or OH if unused. Non-standard residues stand in square brackets, D forms with d. Groups on a side chain read outwards from the residue. Primed or numbered codes have the meaning given here. No end group written: not given here. *: point of attachment. γGlu = O=C(O)[C@H](CCC(=O)[*:2])N[*:1]; Palmitoyl = CCCCCCCCCCCCCCCC(=O)*; αMeF = C[C@](N)(Cc1ccccc1)C(=O)O; αMeK = C[C@](N)(CCCCN)C(=O)O; Lauroyl = CCCCCCCCCCCC(=O)*; αMeS = C[C@](N)(CO)C(=O)O; PEG2′ = not defined here; Aib = CC(C)(N)C(=O)O
attribute_measured: Primary assay EC50 (cAMP), n1 (pM)
# value in pM; strip the unit string

# annotated cases, reported Primary assay EC50 (cAMP), n1 shown
binder	Primary assay EC50 (cAMP), n1, pM
H[Aib]EGS[αMeF]TSDV[αMeS]SYK([PEG2′-PEG2′-γGlu-Palmitoyl])EGEAA[αMeK]EFIAK([PEG2′-PEG2′-γGlu-Palmitoyl])VVEGG-NH2 [SEQ ID NO: 272]	339
H[Aib]EGTFTSDVSK([PEG2′-PEG2′-γGlu-Lauroyl])FLEGEAAEEFIK([PEG2′-PEG2′-γGlu-Lauroyl])WVVEGG-NH2 [SEQ ID NO: 237]	19.5
H[Aib]EGS[αMeF]TSDV[αMeS]SK([PEG2′-PEG2′-γGlu-Palmitoyl])LEGEAA[αMeK]E[αMeF]IAK([PEG2′-PEG2′-γGlu-Palmitoyl])VVEGG-NH2 [SEQ ID NO: 409]	39.5

Attention now turns to another entry.
The binder H[Aib]EGS[αMeF]TSDVSK([PEG2′-PEG2′-γGlu-Lauroyl])FLEGEAAEEFIK([PEG2′-PEG2′-γGlu-Lauroyl])FVVEGG-NH2 [SEQ ID NO: 241] showed Primary assay EC50 (cAMP), n1 equal to 7.55
